# Test system: MSTO-211H cells
# assay.remarks: Cell proliferation inhibition experiment (CellTiter-Glo)
# Type: cell-based
# condition: Homo sapiens, 96 hours, read-out: Inhibitory activity of each compound on the proliferation of MSTO-211H cells (grades of IC50 values)
quantity.kind: IC50

Use these answered entries as a reference point.
| molecule | endpoint.value |
| --- | --- |
| CNC[C@@]1(c2ccccc2)Cc2c(cc(F)c(Cl)c2-c2c(C(N)=O)cc3c(c2F)OCc2nn(C)cc2-3)O1 (atropisomer, axis not shown) | < 200 nM |
| Cn1cc2c(n1)COc1c-2cc(C#N)c(-c2c(Cl)c(F)cc3c2C[C@](c2ccccc2)([C@@H]2CCCN2)O3)c1F (atropisomer, axis not shown) | 200 to 500 nM |
| Cn1cc2c(n1)COc1c-2cc(C(N)=O)c(-c2c(Cl)c(F)cc3c2C[C@@](CN[C@H]2CC[C@H](O)CC2)(c2ccccc2)O3)c1F (atropisomer, axis not shown) | < 200 nM |

INPUT: Kindly indicate its recorded IC50. Item: [2H]c1c([2H])c([2H])c([C@]2([C@@H]3CCCN3)Cc3c(cc(F)c(Cl)c3-c3c(C(N)=O)cc4c(c3F)OCc3nn(C)cc3-4)O2)c([2H])c1[2H] (atropisomer, axis not shown)
OUTPUT: < 200 nM
